Measured Kd, listed per entry for reference.
# targetEntity: RSV prefusion F (preF), DS-Cav1 stabilized trimer, subtype A (Respiratory Syncytial Virus, subtype A, UniProt P03420 26-513)
# experimentalProtocol: BLI, apparent IgG KD (Table 9A)
The answer is to be given in nM; state only the numeric part.

Tell me the measured Kd of ADI-36677 (antibody, V domains shown) VH: QVQLVQSGGGLVQPGGSLRLSCAASGFTFSSYEMNWVRQAPGKGLEWISYISSSGDTKYYADSVKGRFTVSRDNAKYSLYLQMDSLRAEDTAVYYCASLYDSRGYYWVFDYWGQGTLVTVSS VL: DIVMTQSPSSLSASVGDRVTITCQASQDISTYLNWYQHKPGKAPNLLIYDASNLEPGVPSRFSGSGSGTDFTFTISSLQPEDIATYYCLQHDNLPPTFGQGTKVDIK , please. 0.54

Tell me the measured Kd of ADI-41203 (antibody, V domains shown) VH: QVQLVQSGAEVRKPGESLKISCKASGYRFTNYWIGWVRQMPGKGLEWMGVIYPGDSDTRYSPSFQGQVTMSADKSTNTAYLQWSSLKASDTAIYYCVSLYSDYDYGALDYWGQGTLVTVSS VL: EIVMTQSPATLSVSPGERATLSCRASENVGRNLAWYQQKPGQAPRLLIYGASIRATGILARFSGSGSGTEYTLTISSLQSEDFAVYYCQQYHDWPSFTFGPGTKVDIK , please. 0.4

Tell me the measured Kd of ADI-14405 (antibody, V domains shown, also called Ab 71; Antibody Number 71) VH: QVQLVQSGTEVKKPGASVKVSCKASGYTFTNYDISWVRQAPGQGLEWMGWISGSTGNTIYAQNLQGRLTMTTDTSTSTAYMELRSLRSDDTAIYYCARDNVGYASGNYFDYWGQGTLVTVSS VL: SYVLTQPPSVSVAPGKTARIPCGGNNIGSKSVHWYQQRPGQAPVLVIYYDSVRPSGIPERFSGSNSGNTATLTISTVEAGDEADFYCQVWDSSRDHEVFGGGTKLTVL , please. 0.14
